test: protein stability index of a GFP-peptide fusion (GPS, HEK-293T) (PSI 1-6); higher = more stable; conditions: treatment: MLN4924 1 uM, 8 h; c terminus: a fixed tail appended;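 note: 24-mer peptide tiles fused after GFP, lentivirally expressed, FACS-sorted into six equal bins by GFP/DsRed ratio, decoded by Illumina sequencing, PSI is the read-weighted mean bin number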
Assignment: determine reported protein stability index for the given sequences.
Give bare numbers.

Example cases with answers are listed next.
INSERT INTO measurements (seq, obs_value) VALUES
  ('QLVNSSADNMLEYKSWLKNLAKEQ [PPEF2]', 3.77),
  ('AVPKFMKRIKVPDYKDRSVFGVPL [DLC1]', 2.4),
  ('VNPAYPESRYTSDYFISYGIEHAQ [ETS1]', 2.8);

Look up protein stability index for the entries below, preserving their order.
1. GPEDLSYQIYDVSGESNSAVSTED [LARP4]
2. DRTFTLKTVLMIAIQLLSRMEYVH [CSNK1G1]
3. KKNHEEEMKEFSSQLAGQVNVEMD [KRT15]
4. LLRRDLGVGTSMEGASPLSERCQR [FANCE]
5. CMWSKKCSGVACLVKDNPQRSYFL [WASL]

1: 5.44; 2: 2.65; 3: 5.59; 4: 4.17; 5: 2.04

Look up protein stability index for the entries below, preserving their order.
1. MAEASATGACGEAMAAAEGSSGPA [SEPHS2]
2. HAFPVVTENRGNEKEFMKGNQLIS [CLCN6]
3. ICNNKWFTDTSIILFLNKKDLFEE [GNAI1]
4. NDTNSFTVDCEPSDLFRLQEYNIP [CDS2]
5. IFNNVMTLCAMLPLLLFTYLNSFL [SLC29A1]
6. ELEGLIADPDEMRMQALLIRERIL [FEM1C]

1. 5.3
2. 4.12
3. 2.83
4. 3.74
5. 3.23
6. 2.65

Look up protein stability index for the entries below, preserving their order.
1. PNPPTLQEAGLSHTEVLFVQDLTD [FAF2]
2. MKEPITKAEILESVIKNYEDHFPL [MAGEA10]

1: 4.64; 2: 3.93

====

experiment: protein stability index of a GFP-peptide fusion (GPS, HEK-293T) (PSI 1-6); higher = more stable; conditions: treatment: DMSO; c terminus: a fixed tail appended
Assignment: determine reported protein stability index for the given sequences.
Numbers only.

INSERT INTO results (seq, outcome_measure, obs_value) VALUES
  ('EIRMWQTREKAKFSDGEKCRREAF [PHTF1]', 'protein stability index', 2.98),
  ('SGDPPLSSNVSLSLFVLDQNDNAP [PCDHGA10]', 'protein stability index', 3.63),
  ('PPKKPSNWRRKHEEFIATIRAAKG [ZC2HC1A]', 'protein stability index', 3.65),
  ('PNYLANPAFPFIYTPTAEDSAQMQ [ANKRD40]', 'protein stability index', 3.85),
  ('NSDRMTHCGVLEFVADEGICYLPH [UFD1]', 'protein stability index', 2.87);

Look up protein stability index for the entries below, preserving their order.
1. LKKSNSAPSKKAAKDPGKGELPNH [FBF1]
2. SAAVPAGQTYVDAGYEVDKIAQNL [CHIT1]
3. AILFTRQDLCGVSTCDTLGMADVG [ADAMTS4]
4. TVKLLVEEKADVLARGPLNQTALH [RIPK4]
5. SIMEMQAMEVNTSASEILYSAPPG [NFE2L1]
6. TVGDLGIVRRRSRDVPESPQHAAD [YJU2B]
7. EIDCVDKDGNTPLHVAARYGHELL [ANKRD44]
8. SLKLALLFYILTFVGAIFNGLTLL [RTN2]

1: 5.14; 2: 4.39; 3: 1.8; 4: 3.35; 5: 3.81; 6: 5.08; 7: 4.05; 8: 3.88

Data origin, for the record: the supplement of paper PMC10567573
